Parameter inhibition: see the listing below.
# protocolDescription: growth suppression of yeast trafficking mutant, preliminary HTS, modulators of trafficking downstream of Golgi apparatus project, 1536-format plate, OD 615 nm (AID 637)
# particulars: yeast transport mutant growth, absorbance 615 nm, 18 h; hits give high values
The source made the active and inactive calls. Cut-off read from the data, not from the text of the source: active = inhibition above about 30%; inactive = the rest.
observedProperty: inhibition

compound="CC1C(O)=C(c2nc3ccccc3[nH]2)C(=N)N1c1ccccc1 (stereo not drawn)" observedmeasurement="-10.6% (inactive)"
compound="Cc1ccc(CN2C(=O)CCC2C(=O)NC2CCCC2)cc1 (stereo not drawn)" observedmeasurement="4.59% (inactive)"
compound=COc1cccc(C(=O)NCc2nnc(SCC(=O)Nc3nccs3)n2-c2ccccc2)c1 observedmeasurement="1.17% (inactive)"
compound="Cc1ccc(C2N(c3ccc(Cl)c(Cl)c3)C(=O)C3CCCN32)o1 (stereo not drawn)" observedmeasurement="0.32% (inactive)"
compound=CCC(=O)Nc1ccc(NC(=O)c2cccc(OC)c2)nc1 observedmeasurement="-6.56% (inactive)"
compound=CCCn1nc(NS(=O)(=O)c2ccccc2)c2cc3ccccc3nc21 observedmeasurement="5.45% (inactive)"
compound=COCCN1Cc2cccc(C(=O)Nc3cccnc3)c2C1=O observedmeasurement="1.9% (inactive)"
compound=CCCCCc1c(O)c2ccccc2[nH]c1=O observedmeasurement="2.46% (inactive)"
compound="Fc1ccc(NCc2nnc(SCc3nnc(-c4ccccc4)o3)n2CC2CCCO2)cc1 (stereo not drawn)" observedmeasurement="15.4% (inactive)"
compound=Cc1oc(-c2ccccc2F)nc1CS(=O)(=O)CC(=O)N1CCN(Cc2ccccc2)CC1 observedmeasurement="-0.98% (inactive)"
compound="CCOC(=O)c1ccc2nc(C)c3c(c2c1)OC(C)C3 (stereo not drawn)" observedmeasurement="-5.67% (inactive)"
compound="N#CC1=C(N)Oc2n[nH]c(-c3ccncc3)c2C1c1ccsc1 (stereo not drawn)" observedmeasurement="-4% (inactive)"
compound=CC(C)(C)c1cc(C(=S)N2CCN(CCO)CC2)cc(C(C)(C)C)c1O observedmeasurement="2.42% (inactive)"
